B1: Azoarcus group I ribozyme (parent)
chain: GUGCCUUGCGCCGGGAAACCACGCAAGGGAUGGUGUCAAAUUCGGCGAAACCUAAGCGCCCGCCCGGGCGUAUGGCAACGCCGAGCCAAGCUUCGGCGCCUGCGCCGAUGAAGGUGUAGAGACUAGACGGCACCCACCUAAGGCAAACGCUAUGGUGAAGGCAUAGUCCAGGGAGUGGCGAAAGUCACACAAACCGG

- Variants of: B1
- Test protocol: reverse-splicing fitness (ratio to wild type); higher = more active; in vitro selection; Mg2+ level not given
Measured attribute: reverse-splicing fitness
Give the figure by itself; no unit, no explanation.

### Prompt reverse-splicing fitness for A111G A120U C150A U176G ?
### Response 0.0203

### Prompt reverse-splicing fitness for A111U A120U A145C C150A C169U U176G ?
### Response 0.00241

### Prompt reverse-splicing fitness for C82G A120C A145U C150A C169G U176G ?
### Response 0.00461

### Prompt reverse-splicing fitness for C82G A111G A120C A145G U176C ?
### Response 0.0418

### Prompt reverse-splicing fitness for C82A A111C A145C C150G U176A ?
### Response 0.00906

### Prompt reverse-splicing fitness for C82A A111C A120U C150G C169G U176G ?
### Response 0.00279
